Sourced from ChEMBL document CHEMBL4513216

// cytotoxicity at 10 µM lookup, one value per entry
assay: Toxicity liver stage against HepG2, at 10uM; type: cell-based; parameters: test concentration 10 uM, cell line HepG2-A16-CD81EGFP; details: human, HepG2-A16-CD81EGFP cells; read-out: INHIBITION
Return type: number; implicit unit %.

Answered examples (5):
molecule	unit.info	cytotoxicity at 10 µM
Cc1cc(C(=O)N(C)C2CCN(C)C2)c2ccc(F)cc2n1 (stereo unspecified)	%	-2.55
C1CCCN(c2nc(C3CC3)ns2)CC1	%	-12.3
CC(=O)CCC(=O)N1CCC2(CC1)N=C(CCC(C)C)NC2=O	%	-7.14
COc1ccc(-c2nc(C(=O)NCC3CCOC3)cs2)cc1OC (stereo unspecified)	%	2.39
CN(c1ncccc1CNCc1ncc[nH]1)C1CCCCC1	%	-7.28

# evaluate next
# input Suppose we examine the molecule `C[C@@H]1CN(C2(C(=O)N3CCSCC3)Cc3ccccc3C2)C[C@H](C)O1` ; what cytotoxicity at 10 µM value has been reported?
# output 0.66
